Test system: benzodiazepine receptor of rat brains
Assay: Radioligand receptor binding assay ([3H]-flumazenil competitive binding)
Conditions: log[L] -11.0; mean ± SEM, n=3
Entries whose Specific binding of [3H]flumazenil is below 0.6 cpm take t; entries at or above 0.6 cpm take f.

INSERT INTO assay_data (molecule_smiles, class_label) VALUES
  ('Cc1cccc(NC(=O)c2nnc(-c3ccc(Cl)cc3Oc3ccccc3)o2)n1', 't'),
  ('O=C(NN1CCOCC1)c1nnc(-c2ccc(Cl)cc2Oc2ccccc2)o1', 'f'),
  ('O=C(Nc1ccccc1)c1nnc(-c2ccc(Cl)cc2Oc2ccccc2)o1', 'f'),
  ('Cc1ccnc(NC(=O)c2nnc(-c3ccc(Cl)cc3Oc3ccccc3)o2)c1', 't');

Then this molecule:
[Q] Is 0.6 cpm strictly greater than the molecule's reported Specific binding of [3H]flumazenil? molecule: "O=C(Nc1ccccn1)c1nnc(-c2ccc(Cl)cc2Oc2ccccc2)o1"
[A] f

###

Listing: melting point of selected molecules

INSERT INTO assay_data (molecule, test_value) VALUES
  ('O=C(NN1CCOCC1)c1nnc(-c2ccc(Cl)cc2Oc2ccccc2)o1 [6e]', '159 to 161 °C'),
  ('O=C(NC1CCCCC1)c1nnc(-c2ccc(Cl)cc2Oc2ccccc2)o1 [6f]', '132 to 133 °C'),
  ('Cc1cccc(NC(=O)c2nnc(-c3ccc(Cl)cc3Oc3ccccc3)o2)n1 [6c]', '183.2 to 184.3 °C'),
  ('O=C(Nc1ccccn1)c1nnc(-c2ccc(Cl)cc2Oc2ccccc2)o1 [6b]', '198 to 200 °C');

Then this molecule:
[Q] Could you tell me which melting point is on file for Cc1ccnc(NC(=O)c2nnc(-c3ccc(Cl)cc3Oc3ccccc3)o2)c1 [6d] ?
[A] 188.2 to 189.1 °C

###

Target: benzodiazepine receptor of rat brains
Assay: Radioligand receptor binding assay ([3H]-flumazenil competitive binding)
Details: [3H]-flumazenil competitive binding
readout.type: pKi
Please keep in mind that pKi is minus log10 of the molar concentration; only the number is needed.

Worked cases, pKi given:
INSERT INTO results (compound, test_value) VALUES
  ('Cc1cccc(NC(=O)c2nnc(-c3ccc(Cl)cc3Oc3ccccc3)o2)n1 [6c]', 9.12),
  ('Cc1ccnc(NC(=O)c2nnc(-c3ccc(Cl)cc3Oc3ccccc3)o2)c1 [6d]', 9.06),
  ('O=C(NC1CCCCC1)c1nnc(-c2ccc(Cl)cc2Oc2ccccc2)o1 [6f]', 8.82);

Please turn your attention to the following entry.
[Q] Please look up its pKi: O=C(NN1CCOCC1)c1nnc(-c2ccc(Cl)cc2Oc2ccccc2)o1 [6e]
[A] 9.02
